system: MDA-MB-468LN cell line; assay: Promega CellTiter-Glo (CTG) luminescent assay, MDA-MB-468LN; assay type: cell-based; conditions: Homo sapiens; Table 1 coumarin-based triazoles; 72 hr; mean ± standard deviation
Recorded metric: IC50 (µM)

Worked examples, 8 molecules total:
INSERT INTO assay_data (chemical_smiles, study_target, recorded_metric, value_units, quantitative_result) VALUES
  ('Cc1c(OC2CCN(C)CC2)ccc2cc(NC(=O)c3cn(Cc4ccc(C(C)(C)C)cc4)nn3)c(=O)oc12', 'MDA-MB-468LN cell line', 'IC50', 'µM', 0.74),
  ('Cc1c(OC2CCN(C)CC2)ccc2cc(NC(=O)c3cn(Cc4ccccc4Cl)nn3)c(=O)oc12', 'MDA-MB-468LN cell line', 'IC50', 'µM', 2.1),
  ('COc1ccc(Cn2cc(C(=O)Nc3cc4ccc(OC5CCN(C)CC5)c(C)c4oc3=O)nn2)cc1', 'MDA-MB-468LN cell line', 'IC50', 'µM', 3.4),
  ('COc1cccc(Cn2cc(C(=O)Nc3cc4ccc(OC5CCN(C)CC5)c(C)c4oc3=O)nn2)c1', 'MDA-MB-468LN cell line', 'IC50', 'µM', 2.69),
  ('Cc1c(OC2CCN(C)CC2)ccc2cc(NC(=O)c3cn(Cc4ccccc4)nn3)c(=O)oc12', 'MDA-MB-468LN cell line', 'IC50', 'µM', 2.4),
  ('Cc1c(OC2CCN(C)CC2)ccc2cc(NC(=O)c3cn(Cc4ccc(Cl)cc4)nn3)c(=O)oc12', 'MDA-MB-468LN cell line', 'IC50', 'µM', 2.2),
  ('Cc1c(OC2CCN(C)CC2)ccc2cc(NC(=O)c3cn(Cc4ccc([N+](=O)[O-])cc4)nn3)c(=O)oc12', 'MDA-MB-468LN cell line', 'IC50', 'µM', 0.81),
  ('Cc1c(OC2CCN(C)CC2)ccc2cc(NC(=O)c3cn(CCc4ccccc4)nn3)c(=O)oc12', 'MDA-MB-468LN cell line', 'IC50', 'µM', 0.99);

I. Cc1c(OC2CCN(C)CC2)ccc2cc(NC(=O)c3cn(CC4CCCCC4)nn3)c(=O)oc12
II. Cc1ccc(-n2cc(C(=O)Nc3cc4ccc(OC5CCN(C)CC5)c(C)c4oc3=O)nn2)cc1
In: Quick one: lower IC50, I or II ? In your reply, give the label of the chosen option.
Out: I
(I: 0.99 µM, II: 4 µM)

P. Cc1c(OC2CCN(C)CC2)ccc2cc(NC(=O)c3cn(Cc4cccc(Cl)c4)nn3)c(=O)oc12
Q. Cc1c(OC2CCN(C)CC2)ccc2cc(NC(=O)c3cn(Cc4ccc(Br)cc4)nn3)c(=O)oc12
R. Cc1c(OC2CCN(C)CC2)ccc2cc(NC(=O)c3cn(-c4cccc(Cl)c4)nn3)c(=O)oc12
In: In this exercise, place the 3 molecules in ascending sequence of their recorded IC50. # the answer lists labels in the order requested
Out: P, Q, R
(P: 1.14 µM, Q: 2.1 µM, R: 4.6 µM)

###

system: SKBr3 cells; test: MTS/PMS cell viability assay, SKBr3; assay type: cell-based; conditions: Homo sapiens, SK-BR-3; Table 1 coumarin-based triazoles; 72 hr; mean ± standard deviation, at least two experiments in triplicate; read-out: IC50 SKBr3
pIC50: −log10 of the molar value.
Recorded metric: pIC50

Answered cases to consult:
INSERT INTO measurements (compound, quantitative_result) VALUES
  ('Cc1c(OC2CCN(C)CC2)ccc2cc(NC(=O)c3cn(-c4ccccc4)nn3)c(=O)oc12 [4a]', 6.03),
  ('Cc1c(OC2CCN(C)CC2)ccc2cc(NC(=O)c3cn(Cc4cccc(Cl)c4)nn3)c(=O)oc12 [4n]', 5.97),
  ('Cc1ccc(Cn2cc(C(=O)Nc3cc4ccc(OC5CCN(C)CC5)c(C)c4oc3=O)nn2)cc1 [4i]', 5.92),
  ('Cc1c(OC2CCN(C)CC2)ccc2cc(NC(=O)c3cn(-c4cccc(Cl)c4)nn3)c(=O)oc12 [4f]', 6.15),
  ('Cc1c(OC2CCN(C)CC2)ccc2cc(NC(=O)c3cn(Cc4ccc(F)cc4)nn3)c(=O)oc12 [4m]', 5.97);

P. Cc1c(OC2CCN(C)CC2)ccc2cc(NC(=O)c3cn(Cc4ccccc4Cl)nn3)c(=O)oc12 [4p]
Q. Cc1c(OC2CCN(C)CC2)ccc2cc(NC(=O)c3cn(Cc4ccc(Br)cc4)nn3)c(=O)oc12 [4h]
In: Hello, I am sorting some records. Could you say if P or Q has the smaller pIC50 value? Please respond with the label that marks your chosen entry.
Out: P
(P: 5.89, Q: 6.14)

###

system: MDA-MB-468LN cell line; assay: Promega CellTiter-Glo (CTG) luminescent assay, MDA-MB-468LN; assay type: cell-based; details: Homo sapiens; Table 1 coumarin-based triazoles; 72 hr; mean ± standard deviation
Recorded metric: IC50 (nM)

INSERT INTO results (chemical_smiles, recorded_metric, quantitative_result) VALUES
  ('Cc1c(OC2CCN(C)CC2)ccc2cc(NC(=O)c3cn(Cc4ccc(F)cc4)nn3)c(=O)oc12', 'IC50', 2600),
  ('Cc1c(OC2CCN(C)CC2)ccc2cc(NC(=O)c3cn(-c4ccccc4)nn3)c(=O)oc12', 'IC50', 1100),
  ('Cc1c(OC2CCN(C)CC2)ccc2cc(NC(=O)c3cn(-c4ccc(Br)cc4)nn3)c(=O)oc12', 'IC50', 2800);

I. Cc1ccc(Cn2cc(C(=O)Nc3cc4ccc(OC5CCN(C)CC5)c(C)c4oc3=O)nn2)cc1
II. Cc1c(OC2CCN(C)CC2)ccc2cc(NC(=O)c3cn(-c4ccc(Cl)cc4)nn3)c(=O)oc12
In: For I and II , which recorded IC50 is lower? The response must carry the label of the picked entry.
Out: II
(II: 810 nM, I: 2400 nM)

###

tested on: SKBr3 cells; assay: MTS/PMS cell viability assay, SKBr3; assay type: cell-based; conditions: Homo sapiens, SK-BR-3; Table 1 coumarin-based triazoles; 72 hr; mean ± standard deviation, at least two experiments in triplicate; read-out: IC50 SKBr3
pIC50: −log10 of the molar value.
Recorded metric: pIC50

INSERT INTO results (chemical_smiles, quantitative_result) VALUES
  ('Cc1c(OC2CCN(C)CC2)ccc2cc(NC(=O)c3cn(Cc4ccccc4)nn3)c(=O)oc12', 6.00),
  ('COc1cccc(Cn2cc(C(=O)Nc3cc4ccc(OC5CCN(C)CC5)c(C)c4oc3=O)nn2)c1', 5.94),
  ('Cc1c(OC2CCN(C)CC2)ccc2cc(NC(=O)c3cn(-c4ccc(Br)cc4)nn3)c(=O)oc12', 5.86),
  ('Cc1c(OC2CCN(C)CC2)ccc2cc(NC(=O)c3cn(Cc4ccc(Cl)cc4)nn3)c(=O)oc12', 5.94),
  ('COc1ccc(Cn2cc(C(=O)Nc3cc4ccc(OC5CCN(C)CC5)c(C)c4oc3=O)nn2)cc1', 5.88),
  ('Cc1ccc(-n2cc(C(=O)Nc3cc4ccc(OC5CCN(C)CC5)c(C)c4oc3=O)nn2)cc1', 5.97);
